Task for the reader: assign each of the following compounds its reported boiling point.
// note: answer is a bare numeric in °C

Q) Please supply the value of reported boiling point for the item CCCCC(C)O (centres undefined)
A) 136

Q) Please supply the value of reported boiling point for the item CSc1ccc(N)cc1
A) 272

Q) Please supply the value of reported boiling point for the item CC(F)(F)C(Cl)(Cl)Cl
A) 73

Q) Please supply the value of reported boiling point for the item C1CCSC1
A) 121

* * *

Task for the reader: assign each of the following molecules its reported log10 Henry constant (atm·m³/mol).
Form field (numeric): enter value without unit.

Q) Please supply the value of reported log10 Henry constant (atm·m³/mol) for the item CCCCCC(=O)O
A) -6.12

Q) Please supply the value of reported log10 Henry constant (atm·m³/mol) for the item ClCI
A) -3.06

Q) Please supply the value of reported log10 Henry constant (atm·m³/mol) for the item COP(=S)(OC)Oc1ccc([N+](=O)[O-])c(C)c1
A) -6.03

Q) Please supply the value of reported log10 Henry constant (atm·m³/mol) for the item COc1cc(C)ccc1O
A) -5.88

* * *

Task for the reader: assign each of the following compounds its reported boiling point.
// note: answer is a bare numeric in °C

Q) Please supply the value of reported boiling point for the item CCS(=O)(=O)C(C)(C)S(=O)(=O)CC
A) 300

Q) Please supply the value of reported boiling point for the item C=CCNCCC
A) 112

Q) Please supply the value of reported boiling point for the item CC(C)(C)CCCl
A) 115

Q) Please supply the value of reported boiling point for the item CCCCCCCCCCCCCCCCCCCCC1CCCCC1
A) 430

Q) Please supply the value of reported boiling point for the item O=S1(=O)CCCC1
A) 285

Q) Please supply the value of reported boiling point for the item CCCCC(CC)COCC(CC)CCCC (stereo not given)
A) 269

Q) Please supply the value of reported boiling point for the item CC(C)COC(N)=O
A) 207

Q) Please supply the value of reported boiling point for the item C#C
A) -84.7

Q) Please supply the value of reported boiling point for the item Cc1nc2ccccc2o1
A) 200

Q) Please supply the value of reported boiling point for the item CCCCN(CCCC)CCCC
A) 216

Q) Please supply the value of reported boiling point for the item C=Cc1ccccc1
A) 145

Q) Please supply the value of reported boiling point for the item Oc1ccccc1C(F)(F)F
A) 148

Q) Please supply the value of reported boiling point for the item CC(=O)c1ccncc1
A) 212

Q) Please supply the value of reported boiling point for the item CC(C)C1CC1
A) 58.3

Q) Please supply the value of reported boiling point for the item COC1CCCCC1
A) 133

Q) Please supply the value of reported boiling point for the item CCCCC(=O)OC
A) 127

Q) Please supply the value of reported boiling point for the item CCc1cccc(O)c1
A) 218

Q) Please supply the value of reported boiling point for the item CC(Cl)CC(Cl)Cl (stereo not given)
A) 152

Q) Please supply the value of reported boiling point for the item CCOC(=O)c1cccnc1
A) 224

Q) Please supply the value of reported boiling point for the item Cc1ccc(CC(C)C)cc1
A) 196

Q) Please supply the value of reported boiling point for the item CC(=O)CC(C)C
A) 116

Q) Please supply the value of reported boiling point for the item OCCc1ccc(Cl)cc1
A) 259

Q) Please supply the value of reported boiling point for the item Nc1ccccc1N
A) 257

Q) Please supply the value of reported boiling point for the item c1ccc([Se]c2ccccc2)cc1
A) 302

Q) Please supply the value of reported boiling point for the item CC(=O)OC(C)OC(C)=O
A) 169

Q) Please supply the value of reported boiling point for the item O=C1CCCCCCC1
A) 196

Q) Please supply the value of reported boiling point for the item CC1CCOS(=O)O1 (stereo not given)
A) 185

Q) Please supply the value of reported boiling point for the item CCOC(=O)Nc1ccccc1
A) 238

Q) Please supply the value of reported boiling point for the item COP(=O)(OC)OC
A) 197

Q) Please supply the value of reported boiling point for the item OC1CCC1
A) 124

Q) Please supply the value of reported boiling point for the item C=C(Br)Br
A) 92

Q) Please supply the value of reported boiling point for the item S=C=S
A) 46

Q) Please supply the value of reported boiling point for the item CC(CC1CCCCC1)C1CCCCC1 (stereo not given)
A) 284

Q) Please supply the value of reported boiling point for the item CC(C)(Br)C(=O)Br
A) 163

Q) Please supply the value of reported boiling point for the item O=[N+]([O-])c1ccc(Cl)cc1Cl
A) 258

Q) Please supply the value of reported boiling point for the item c1ccc(-c2nc3ccccc3s2)cc1
A) 371

Q) Please supply the value of reported boiling point for the item CC1(C)CCC(C)(C)C1
A) 118

Q) Please supply the value of reported boiling point for the item CC(CC1CCCCC1)CC1CCCCC1
A) 295

Q) Please supply the value of reported boiling point for the item CC(=O)C(=O)c1ccccc1
A) 222

Q) Please supply the value of reported boiling point for the item C1CSCCN1
A) 175

Q) Please supply the value of reported boiling point for the item CCCC(O)CC(C)C (stereo not given)
A) 164

Q) Please supply the value of reported boiling point for the item CNCCN
A) 115

Q) Please supply the value of reported boiling point for the item CCC(C)CCC(C)(C)C (stereo not given)
A) 151

Q) Please supply the value of reported boiling point for the item ClC=C(Cl)C(Cl)=CCl
A) 188

Q) Please supply the value of reported boiling point for the item Cc1cc(C)c(C)s1
A) 164

Q) Please supply the value of reported boiling point for the item CCN=C=S
A) 132

Q) Please supply the value of reported boiling point for the item CNC(C)=O
A) 205

Q) Please supply the value of reported boiling point for the item NCc1cccc(CN)c1
A) 247

Q) Please supply the value of reported boiling point for the item CCCCCCCCCCCCCCCCCCCCCCC
A) 380

Q) Please supply the value of reported boiling point for the item Clc1cccc(Cl)n1
A) 211

Q) Please supply the value of reported boiling point for the item COc1cc(-c2ccc(N)c(OC)c2)ccc1N
A) 356

Q) Please supply the value of reported boiling point for the item CC(=O)c1cccs1
A) 214

Q) Please supply the value of reported boiling point for the item C[Se][Se]C
A) 156

Q) Please supply the value of reported boiling point for the item Cc1ccc(C(C)C)cc1O
A) 238

Q) Please supply the value of reported boiling point for the item CC1(C)CCCCC1=O
A) 172

Q) Please supply the value of reported boiling point for the item SCc1ccccc1
A) 194

Q) Please supply the value of reported boiling point for the item CC#CCCC
A) 84.5

Q) Please supply the value of reported boiling point for the item CCCCCC(C)=O
A) 151

Q) Please supply the value of reported boiling point for the item COC(C)CC(OC)OC (stereo not given)
A) 157

Q) Please supply the value of reported boiling point for the item CC(C)C(C)C(C)C(C)C (stereo not given)
A) 156

Q) Please supply the value of reported boiling point for the item Cc1cnccn1
A) 137

Q) Please supply the value of reported boiling point for the item C=CC(C)C(C)C (stereo not given)
A) 80.8

Q) Please supply the value of reported boiling point for the item CCCCCCF
A) 91.5

Q) Please supply the value of reported boiling point for the item CC=CC(C)C(C)C=CC (stereo not given)
A) 154

Q) Please supply the value of reported boiling point for the item C=Cc1ccc(Br)cc1
A) 212
